# Test system: IGROV-1
# assay.protocol: NCI tumour cell line growth inhibition, 48 h
The source made the active and inactive calls. No stated cut-off is given here; in the data, active = GI50 up to about 1.1 µM and inactive = higher.
outcome.measure: GI50

Given the entry `C/C=C(/I)CBr` , report its measured GI50. 16 µM (inactive)

Given the entry `COc1ccc(-n2c(=O)n(-c3ccccc3)c(=O)n2-c2ccc(OC)cc2)cc1` , report its measured GI50. > 100 µM (inactive)

Given the entry `Cc1cc2c(cc1C)C(=O)c1ncccc1C2=O` , report its measured GI50. 31.2 µM (inactive)

Given the entry O=C(NC1C/C(=N/O)c2c(Br)sc(Br)c21)C(F)(F)F (stereo unspecified) , report its measured GI50. 94 µM (inactive)

Given the entry `O=C1c2ccccc2C(=O)c2cc3c(cc21)C[S+]([O-])C3` , report its measured GI50. > 100 µM (inactive)

Given the entry Nc1ccn(CCOC(c2ccccc2)P(=O)(O)O)c(=O)n1 (stereo unspecified) , report its measured GI50. > 100 µM (inactive)

Given the entry `Cc1noc(NS(=O)(=O)c2ccc(NC(=O)c3ccc4nc5ccccc5c(Nc5ccc(S(=O)(=O)Nc6onc(C)c6C)cc5)c4c3)cc2)c1C` , report its measured GI50. > 100 µM (inactive)

Given the entry `CO[C@H]1C=C[C@@]23c4cc5c(cc4CO[C@]2(O)CN(C)[C@H]3C1)OCO5` , report its measured GI50. > 100 µM (inactive)
